- TEST SYSTEM: human synovial fluid PLA2 (Homo sapiens, UniProt P14555)
- Sequence (P14555 21-144): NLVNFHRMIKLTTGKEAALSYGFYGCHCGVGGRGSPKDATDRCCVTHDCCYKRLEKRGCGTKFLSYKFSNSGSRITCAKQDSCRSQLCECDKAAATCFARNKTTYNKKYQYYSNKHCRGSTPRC
- RUN DESCRIPTION: in vitro isolated phospholipase A2 assay, human synovial fluid PLA2 (Example 74)
- Type: biochemical
- Parameters: dose or concentration left out as unconfirmed
- CONDITIONS: read-out: % Inhibition, HSF (human synovial fluid)
PROPERTY LABEL: inhibition (%)

Recorded results for 2 compounds are shown here.
- COMPOUND: "Cc1c(CC(=O)O)c2cc(OCc3ccc4ccccc4n3)ccc2n1Cc1ccc(Br)cc1 [Example 25, hemihydrate]"
  inhibition [%]: 11
- COMPOUND: "Cc1c(CC(=O)O)c2cc(OCc3ccccn3)ccc2n1Cc1ccc(Cl)cc1 [Example 36]"
  inhibition [%]: 46

[a] Cc1c(CC(=O)O)c2cc(OCc3ccc4ccccc4n3)ccc2n1Cc1ccccc1 [Example 26, hydrate]
[b] Cc1c(CC(=O)O)c2cc(OCc3csc(-c4ccccc4)n3)ccc2n1CCCc1ccccc1 [Example 63]
Query string: Which item exceeds the other in inhibition, a or b ? Refer to your chosen item by its label in the answer.
Result string: a

* * *

# inhibition at 10000 µM per record follows
- Test system: synthesis of LTB4 by rat glycogen-elicited polymorphonuclear leukocytes (PMN)
- RUN DESCRIPTION: inhibition of LTB4 synthesis by rat glycogen-elicited PMN (Example 72)
- Format: cell-based, rat (female Wistar)
- CONDITIONS: Leukocyte, at 10 mM, negative number denotes potentiation
// note: answer is a bare numeric in %

- COMPOUND: "CC1=C(CC(=O)O)c2cc(F)ccc2/C1=C\\c1ccc([S+](C)[O-])cc1 (centres unmarked) [sulindac, reference compound]"
  UNITS OF MEASURE: "%"
  VALUE OBSERVED: -10
- COMPOUND: "CCC1(CC(=O)O)CCCc2c1[nH]c1ccc(OCc3ccc4ccccc4n3)cc21 (centres unmarked) [Example 11]"
  UNITS OF MEASURE: "%"
  VALUE OBSERVED: 95
- COMPOUND: "CC(C(=O)O)c1ccc2c3cc(OCc4ccc5ccccc5n4)ccc3n(Cc3ccc4ccccc4n3)c2c1 (centres unmarked) [Example 21]"
  UNITS OF MEASURE: "%"
  VALUE OBSERVED: 92
- COMPOUND: "COC(=O)Cc1c(C)n(C(=O)c2ccc(Cl)cc2)c2ccc(OCc3ccc4ccccc4n3)cc12 [Example 17A, hydrate]"
  UNITS OF MEASURE: "%"
  VALUE OBSERVED: 96
- COMPOUND: "CCCCCn1c(C)c(CC(=O)O)c2cc(OCc3ccc4ccccc4n3)ccc21 [Example 29, hemihydrate]"
  UNITS OF MEASURE: "%"
  VALUE OBSERVED: 88

Query string: Please give the measured inhibition at 10000 µM for this compound: Cc1c(CC(=O)O)c2cc(OCc3ccc4ccccc4n3)ccc2n1Cc1ccc(Br)cc1 [Example 25, hemihydrate]
Result string: 93

Query string: Please give the measured inhibition at 10000 µM for this compound: CSc1ccc(/C=C2/C(C)=C(CC(=O)O)c3cc(OCc4ccc5ccccc5n4)ccc32)cc1 [Example 2]
Result string: 96

Query string: Please give the measured inhibition at 10000 µM for this compound: CC(C(=O)O)c1ccc2c(c1)[nH]c1ccc(Cl)cc12 (centres unmarked) [carprofen, reference compound]
Result string: -10
